The origin of these recorded values is the supplement of paper PMC9112550.

- Test system: Escherichia coli TOP10;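 also: peptides expressed intracellularly from a pBAD plasmid library in pooled LB shake-flask culture, induced with 0.3% L-arabinose, DNA abundance read by NGS, three biological replicates, DESeq2 with apeglm shrinkage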
- ASSAY PROCEDURE: shrunken log2 fold change of peptide-encoding DNA abundance (4.5 h post-induction vs induction); higher = less antimicrobial activity (less host growth inhibition)
- DETAILS: time post-induction: 4.5 h; library: site-saturation at positions 5, 18, 19, 20
ATTRIBUTE MEASURED: shrunken log2 fold change

// worked examples, shrunken log2 fold change included
RRIRDRPPRLPRPRPRPGNAPRP : 0.126
RRIRWRPPRLPRPRPRPRDSPRP : -0.299
RRIRYRPPRLPRPRPRPRHTPRP : -0.108
RRIRYRPPRLPRPRPRPSKHPRP : -0.786
RRIRKRPPRLPRPRPRPLCQPRP : 0.206
RRIRIRPPRLPRPRPRPSGMPRP : -0.433
RRIRWRPPRLPRPRPRPKQGPRP : 0.125
RRIRWRPPRLPRPRPRPSFVPRP : -0.284

Quick one: shrunken log2 fold change of RRIRMRPPRLPRPRPRPMFDPRP ?
-0.328

Now give it for RRIRQRPPRLPRPRPRPSFRPRP too.
-0.578

Now give it for RRIRHRPPRLPRPRPRPQMYPRP too.
-0.0219

Now give it for RRIRERPPRLPRPRPRPCNQPRP too.
-0.296

Now give it for RRIRNRPPRLPRPRPRPVWNPRP too.
-0.0723

Now give it for RRIRYRPPRLPRPRPRPVRPPRP too.
0.924
